# target_of_assay: SARS-CoV-2 3CL-protease (Severe acute respiratory syndrome coronavirus 2 (2019-nCoV) (SARS-CoV-2), UniProt P0DTD1)
# assay_protocol: SARS-CoV-2 3C-like (3CL) protease fluorescence assay (FRET)
# Assay type: biochemical
# applied_conditions: read-out: FRET IC50
pIC50: −log10 of the molar value.
readout: pIC50

[[record]]
chemical_structure = "CC(C)C[C@@H](C(=O)N1C[C@]2(C[C@H]1C#N)C(=O)Nc1ccccc12)N(C)C(=O)c1[nH]c2ccc(F)cc2c1Cl"
recorded_result = "6.00 to 7.00"

[[record]]
chemical_structure = "CC(C)C[C@@H](C(=O)N1C[C@]2(C[C@H]1C#N)C(=O)Nc1ccccc12)N(C)C(=O)c1cc2ccc(-c3ccccc3)cc2[nH]1"
recorded_result = "> 7.00"

[[record]]
chemical_structure = "COc1cccc2[nH]c(C(=O)N(C)[C@@H](CCC(C)C)C(=O)N3C[C@]4(C[C@H]3C#N)C(=O)Nc3ccccc34)cc12"
recorded_result = "> 7.00"

[[record]]
chemical_structure = "CC(C)(C)C[C@H](NC(=O)OCc1ccccc1)C(=O)N1C[C@]2(C[C@H]1C#N)C(=O)Nc1ccccc12"
recorded_result = "> 7.00"

[[record]]
chemical_structure = "CC(C)C[C@@H](C(=O)N1C[C@]2(C[C@H]1C#N)C(=O)Nc1ccccc12)N(C)C(=O)c1cc2ccc(F)cc2[nH]1"
recorded_result = "> 7.00"

[[record]]
chemical_structure = "CC(C)C[C@@H](C(=O)N1C[C@]2(C[C@H]1C#N)C(=O)Nc1ccccc12)N(C)C(=O)c1cc2c(Br)cccc2[nH]1"
recorded_result = "> 7.00"

[[record]]
chemical_structure = "COc1cccc2[nH]c(C(=O)N[C@@H](CC3CC3)C(=O)N3C[C@]4(C[C@H]3C#N)C(=O)Nc3ccccc34)cc12"
recorded_result = "> 7.00"

[[record]]
chemical_structure = "COc1cccc2[nH]c(C(=O)N[C@@H](CC(C)C)C(=O)N3C[C@]4(C[C@H]3C(=O)C(=O)NCc3ccccc3)C(=O)Nc3ccccc34)cc12"
recorded_result = "> 7.00"

[[record]]
chemical_structure = "CC(C)C[C@@H](C(=O)N1C[C@]2(C[C@H]1C#N)C(=O)Nc1ccccc12)N(C)C(=O)c1cc2cc(C(C)C)ccc2[nH]1"
recorded_result = "> 7.00"

[[record]]
chemical_structure = "COc1ccc(Cl)c(C(=O)N(C)[C@@H](CC(C)C)C(=O)N2C[C@]3(C[C@H]2C#N)C(=O)Nc2ccccc23)c1"
recorded_result = "> 7.00"

[[record]]
chemical_structure = "CC(C)C[C@@H](C(=O)N1C[C@]2(C[C@H]1C#N)C(=O)Nc1ccccc12)N(C)C(=O)c1ccc(F)cc1Cl"
recorded_result = "> 7.00"

[[record]]
chemical_structure = "CC(C)C[C@H](NC(=O)OC(C)(C)c1cccc(Cl)c1)C(=O)N1C[C@]2(C[C@H]1C#N)C(=O)Nc1ccccc12"
recorded_result = "6.00 to 7.00"

[[record]]
chemical_structure = "CN(C(=O)c1cc2c(F)cc(F)cc2[nH]1)[C@@H](Cc1ccccc1)C(=O)N1C[C@]2(C[C@H]1C#N)C(=O)Nc1ccccc12"
recorded_result = "> 7.00"

[[record]]
chemical_structure = "CC(C)C[C@@H](C(=O)N1C[C@]2(C[C@H]1C#N)C(=O)Nc1ccccc12)N(C)C(=O)c1ncccc1Cl"
recorded_result = "> 7.00"

[[record]]
chemical_structure = "CC(C)C[C@@H](C(=O)N1C[C@]2(C[C@H]1C#N)C(=O)Nc1ccccc12)N(C)C(=O)c1cc2c(C3CC3)cccc2[nH]1"
recorded_result = "> 7.00"

[[record]]
chemical_structure = "CC(C)C[C@H](NC(=O)OCC1(c2ccccc2)CC1)C(=O)N1C[C@]2(C[C@H]1C#N)C(=O)Nc1ccccc12"
recorded_result = "> 7.00"

[[record]]
chemical_structure = "COc1cccc2[nH]c(C(=O)N[C@H](CC3CCCCC3)C(=O)N3C[C@]4(C[C@H]3C#N)C(=O)Nc3ccccc34)cc12"
recorded_result = "6.00 to 7.00"

[[record]]
chemical_structure = "CC(C)C[C@H](NC(=O)OCc1ccccc1)C(=O)N1C[C@]2(C[C@H]1C#N)C(=O)Nc1ccccc12"
recorded_result = "6.00 to 7.00"

[[record]]
chemical_structure = "COc1cccc2[nH]c(C(=O)N[C@@H](CC(C)C)C(=O)N3C[C@]4(C[C@H]3C#N)C(=O)Nc3ccccc34)cc12"
recorded_result = "> 7.00"

[[record]]
chemical_structure = "COc1cccc2[nH]c(C(=O)N[C@@H](CC(C)C)C(=O)N3C[C@]4(C[C@H]3C(=O)C(=O)NC3CC3)C(=O)Nc3ccccc34)cc12"
recorded_result = "6.00 to 7.00"

[[record]]
chemical_structure = "N#C[C@@H]1C[C@@]2(CN1C(=O)[C@H](CC1CC1)NC(=O)OCc1ccccc1)C(=O)Nc1ccccc12"
recorded_result = "> 7.00"

[[record]]
chemical_structure = "CN(C(=O)c1cc2c(F)cc(F)cc2[nH]1)[C@@H](CC1CCC1)C(=O)N1C[C@]2(C[C@H]1C#N)C(=O)Nc1ccccc12"
recorded_result = "> 7.00"

[[record]]
chemical_structure = "CC(C)C[C@@H](C(=O)N1C[C@]2(C[C@H]1C#N)C(=O)Nc1ccccc12)N(C)C(=O)c1cc2c(C#N)cccc2[nH]1"
recorded_result = "> 7.00"

[[record]]
chemical_structure = "CC(C)C[C@@H](C(=O)N1C[C@]2(C[C@H]1C#N)C(=O)Nc1ccccc12)N(C)C(=O)c1cc2ccc(C(C)(C)C)cc2[nH]1"
recorded_result = "> 7.00"

[[record]]
chemical_structure = "CN(C(=O)c1cc2c(F)cccc2[nH]1)[C@@H](CC1CCC1)C(=O)N1C[C@]2(C[C@H]1C#N)C(=O)Nc1ccccc12"
recorded_result = "> 7.00"

